Give measured CC50 at 48 h for each item. Keep answers brief.
- assay_name: Huh-7 CC50 (CellTiter Glo viability)
- Assay type: cell-based, Human
- measurement_context: human, Huh7 hepatocarcinoma cells
Answers are plain numbers, in µM.

[
  {
    "compound": "CCCCOC(=O)[C@H](C)N[P@](=O)(OC[C@@]1(CF)O[C@@H](c2ccc3c(N)ncnn23)[C@H](O)[C@@H]1O)Oc1ccccc1 (single isomer, unassigned)",
    "units_text": "µM",
    "CC50 at 48 h": 10.2
  }
]

We now examine a further compound.
Prompt: Form field: reported CC50 at 48 h of CC(C)COC(=O)[C@H](C)NP(=O)(OC[C@@]1(CF)O[C@@H](c2ccc3c(N)ncnn23)[C@H](O)[C@@H]1O)Oc1ccccc1 (stereo partly shown)
Completion: 10.6

====

- Tested on: Human monocyte-derived dendritic cells (moDCs)
- assay_name: moDC CC50 (CellTiter Glo viability)
- Format: cell-based
- measurement_context: uninfected moDCs, 48 hours
Give measured CC50 for each item. Keep answers brief.

Consider the reported CC50 for these compounds:
[
  {
    "compound": "CCOC(=O)[C@H](C)NP(=O)(OC[C@@]1(CF)O[C@@H](c2ccc3c(N)ncnn23)[C@H](OC(C)=O)[C@@H]1OC(C)=O)Oc1ccccc1 (some centres unmarked)",
    "CC50": "> 17.3 µM"
  },
  {
    "compound": "C[C@H](NP(=O)(OC[C@@]1(CF)O[C@@H](c2ccc3c(N)ncnn23)[C@H](O)[C@@H]1O)Oc1ccccc1)C(=O)OCC(C)(C)C(F)(F)F (single isomer, unassigned) [Example 55]",
    "CC50": "4.19 µM"
  },
  {
    "compound": "C[C@H](NP(=O)(OC[C@@]1(CF)O[C@@H](c2ccc3c(N)ncnn23)[C@H](O)[C@@H]1O)Oc1ccccc1)C(=O)OCC(C)(C)C(F)(F)F (single isomer, unassigned) [Example 54]",
    "CC50": "3.25 µM"
  },
  {
    "compound": "CCOC(=O)[C@H](C)NP(=O)(OC[C@@]1(CF)O[C@@H](c2ccc3c(N)ncnn23)[C@H](OC(=O)C(C)C)[C@@H]1OC(=O)C(C)C)Oc1ccccc1 (some centres unmarked)",
    "CC50": "18.6 µM"
  }
]

We now examine a further compound.
Prompt: Form field: reported CC50 of CCC(=O)O[C@H]1[C@H](c2ccc3c(N)ncnn23)O[C@](CF)(COP(=O)(N[C@@H](C)C(=O)OC2CCCCC2)Oc2ccccc2)[C@H]1OC(=O)CC (some centres unmarked)
Completion: 3.8 µM

====

Give measured CC50 at 48 h for each item. Keep answers brief.
- assay_name: Huh-7 CC50 (CellTiter Glo viability)
- Format: cell-based, Human
- measurement_context: human, Huh7 hepatocarcinoma cells
Numbers only, in µM.

Consider the reported CC50 at 48 h for these compounds:
[
  {
    "compound": "CCC(CC)COC(=O)[C@H](C)N[P@](=O)(OC[C@@]1(CF)O[C@@H](c2ccc3c(N)ncnn23)[C@H](O)[C@@H]1O)Oc1ccccc1",
    "CC50 at 48 h / µM": 18
  },
  {
    "compound": "CCCCOCCOC(=O)[C@H](C)NP(=O)(OC[C@@]1(CF)O[C@@H](c2ccc3c(N)ncnn23)[C@H](O)[C@@H]1O)Oc1ccccc1 (stereo partly drawn)",
    "CC50 at 48 h / µM": 21.1
  },
  {
    "compound": "C[C@H](NP(=O)(OC[C@@]1(CF)O[C@@H](c2ccc3c(N)ncnn23)[C@H](O)[C@@H]1O)Oc1ccccc1)C(=O)OCC(C)(C)C(F)(F)F (stereo partly drawn)",
    "CC50 at 48 h / µM": 19.7
  }
]

Prompt: Form field: reported CC50 at 48 h of CCCCCOC(=O)[C@H](C)NP(=O)(OC[C@@]1(CF)O[C@@H](c2ccc3c(N)ncnn23)[C@H](O)[C@@H]1O)Oc1ccccc1 (stereo partly drawn)
Completion: 11.3

====

- assay_name: HEp-2 CC50 (cytotoxicity in uninfected HEp-2 cells)
- Format: cell-based
- measurement_context: human, CellTiter Glo
measured_quantity: CC50 at 4 days (µM)
Give bare numbers, in µM.

Kindly give each listed record's CC50 at 4 days.
1. COC(=O)[C@H](C)NP(=O)(OC[C@@]1(CF)O[C@@H](c2ccc3c(N)ncnn23)[C@H](OC(=O)C(C)C)[C@@H]1OC(=O)C(C)C)Oc1ccccc1 (single isomer, unassigned)
2. CCC(=O)O[C@H]1[C@H](c2ccc3c(N)ncnn23)O[C@](CF)(CO[P@@](=O)(N[C@@H](C)C(=O)OCC(CC)CC)Oc2ccccc2)[C@H]1OC(=O)CC (single isomer, unassigned)

Completion:
1. 12.6
2. 19.1

====

Give measured CC50 at 4 days for each item. Keep answers brief.
- assay_name: HEp-2 CC50 (cytotoxicity in uninfected HEp-2 cells)
- Type: cell-based
- measurement_context: human, CellTiter Glo

Consider the reported CC50 at 4 days for these molecules:
[
  {
    "molecule": "CCOC(=O)[C@H](C)NP(=O)(OC[C@@]1(CF)O[C@@H](c2ccc3c(N)ncnn23)[C@H](O)[C@@H]1O)Oc1cccc2ccccc12 (stereo partly shown) [Example 44]",
    "CC50 at 4 days": "26.5 µM"
  },
  {
    "molecule": "Nc1ncnn2c([C@@H]3O[C@@](CO)(CF)[C@@H](O)[C@H]3O)ccc12 [Intermediate 5]",
    "CC50 at 4 days": "> 50 µM"
  },
  {
    "molecule": "CCC(C)(C)COC(=O)[C@H](C)NP(=O)(OC[C@@]1(CF)O[C@@H](c2ccc3c(N)ncnn23)[C@H](O)[C@@H]1O)Oc1ccccc1 (stereo partly shown) [Example 7]",
    "CC50 at 4 days": "> 100 µM"
  }
]

Kindly give each listed record's CC50 at 4 days.
1. CC(C)OC(=O)[C@H](C)N[P@](=O)(OC[C@@]1(CF)O[C@@H](c2ccc3c(N)ncnn23)[C@H](OC(=O)C(C)C)[C@@H]1OC(=O)C(C)C)Oc1ccccc1 [Example 23]
2. CCC(=O)O[C@H]1[C@H](c2ccc3c(N)ncnn23)O[C@](CF)(CO[P@@](=O)(N[C@@H](C)C(=O)OC(C)C)Oc2ccccc2)[C@H]1OC(=O)CC [Example 22]
3. CCCCCCOC(=O)[C@H](C)N[P@@](=O)(OC[C@@]1(CF)O[C@@H](c2ccc3c(N)ncnn23)[C@H](O)[C@@H]1O)Oc1ccccc1 (single isomer, unassigned) [Example 18]
4. C[C@H](N[P@](=O)(OC[C@@]1(CF)O[C@@H](c2ccc3c(N)ncnn23)[C@H](O)[C@@H]1O)Oc1ccccc1)C(=O)OC1COC1 [Example 72]
5. COC(=O)[C@H](C)NP(=O)(OC[C@@]1(CF)O[C@@H](c2ccc3c(N)ncnn23)[C@H](O)[C@@H]1O)Oc1ccccc1 (stereo partly shown) [Example 10]
6. CC(C)COC(=O)[C@H](C)NP(=O)(OC[C@@]1(CF)O[C@@H](c2ccc3c(N)ncnn23)[C@H](O)[C@@H]1O)Oc1ccccc1 (stereo partly shown) [Example 70]
7. C[C@H](NP(=O)(OC[C@@]1(CF)O[C@@H](c2ccc3c(N)ncnn23)[C@H](O)[C@@H]1O)Oc1ccccc1)C(=O)OCCC(C)(C)C (stereo partly shown) [Example 4]
8. CC(C)OC(=O)[C@H](C)N[P@](=O)(OC[C@@]1(CF)O[C@@H](c2ccc3c(N)ncnn23)[C@H](O)[C@@H]1O)Oc1ccccc1 (single isomer, unassigned) [Example 12]

Completion:
["26.3 µM", "71.7 µM", "> 100 µM", "> 50 µM", "> 50 µM", "69.4 µM", "> 100 µM", "> 100 µM"]

Kindly give each listed record's CC50 at 4 days.
1. CCCCCCOC(=O)[C@H](C)N[P@](=O)(OC[C@@]1(CF)O[C@@H](c2ccc3c(N)ncnn23)[C@H](O)[C@@H]1O)Oc1ccccc1 (single isomer, unassigned) [Example 19]
2. C[C@H](NP(=O)(OC[C@@]1(CF)O[C@@H](c2ccc3c(N)ncnn23)[C@H](O)[C@@H]1O)Oc1ccccc1)C(=O)OCC(C)(C)C (stereo partly shown) [Example 3]

Completion:
1. > 97.1 µM
2. > 100 µM

Kindly give each listed record's CC50 at 4 days.
1. C[C@H](NP(=O)(OC[C@@]1(CF)O[C@@H](c2ccc3c(N)ncnn23)[C@H](O)[C@@H]1O)Oc1ccccc1)C(=O)OCC(C)(C)O (stereo partly shown) [Example 26]
2. CCCCCCOC(=O)[C@H](C)NP(=O)(OC[C@@]1(CF)O[C@@H](c2ccc3c(N)ncnn23)[C@H](O)[C@@H]1O)Oc1ccccc1 (stereo partly shown) [Example 17]
3. CCOC(=O)[C@@H](NP(=O)(OC[C@@]1(CF)O[C@@H](c2ccc3c(N)ncnn23)[C@H](O)[C@@H]1O)Oc1ccccc1)C(C)C (stereo partly shown) [Example 69]

Completion:
1: > 100 µM; 2: > 100 µM; 3: > 50 µM

Kindly give each listed record's CC50 at 4 days.
1. C[C@H](NP(=O)(OC[C@@]1(CF)O[C@@H](c2ccc3c(N)ncnn23)[C@H](O)[C@@H]1O)Oc1ccccc1)C(=O)OCC(C)(C)C(F)(F)F (stereo partly shown) [Example 53]
2. CCOC(=O)[C@H](C)NP(=O)(OC[C@@]1(CF)O[C@@H](c2ccc3c(N)ncnn23)[C@H](O)[C@@H]1O)Oc1ccc(C(C)(C)C)cc1 (mixture of isomers) [Example 47]
3. CCC(CC)COC(=O)[C@H](C)N[P@](=O)(OC[C@@]1(CF)O[C@@H](c2ccc3c(N)ncnn23)[C@H](OC(C)=O)[C@@H]1OC(C)=O)Oc1ccccc1 [Example 60]

Completion:
1: > 100 µM; 2: 65.9 µM; 3: 36.2 µM

Kindly give each listed record's CC50 at 4 days.
1. CO[C@@H](C)COC(=O)[C@H](C)NP(=O)(OC[C@@]1(CF)O[C@@H](c2ccc3c(N)ncnn23)[C@H](O)[C@@H]1O)Oc1ccccc1 (stereo partly shown) [Example 30]
2. CCCCCOC(=O)[C@H](C)NP(=O)(OC[C@@]1(CF)O[C@@H](c2ccc3c(N)ncnn23)[C@H](O)[C@@H]1O)Oc1ccccc1 (stereo partly shown) [Example 59]
3. C[C@H](NP(=O)(OC[C@@]1(CF)O[C@@H](c2ccc3c(N)ncnn23)[C@H](O)[C@@H]1O)Oc1ccccc1)C(=O)OC1CCC1 (stereo partly shown) [Example 71]

Completion:
1. > 100 µM
2. 45.1 µM
3. > 100 µM
